These entries and their values trace back to ChEMBL document CHEMBL1681688.

test: Lipophilicity, log D of the compound; format: physicochemical; conditions: octanol/water
What logD was measured for each of the following?
Output: the number by itself.

// lookup logD for C[C@H](CNC(=O)Cc1c(F)ccc(F)c1F)C1CCN(C(=O)OC2(C)CC2)CC1 3.9

// lookup logD for CC(CNC(=O)Cc1c(F)cccc1F)C1CCN(C(=O)OC(C)(C)C)CC1 (stereo not drawn) 3.9

// lookup logD for CC(C)OC(=O)N1CCC(C(C)CNC(=O)Cc2c(F)ccc(F)c2F)CC1 (stereo not drawn) 4

====

molecular target: Glucose-dependent insulinotropic receptor (Homo sapiens) (UniProt Q8TDV5); experiment: Intrinsic activity against human GPR119 receptor expressed in HEK293 cells assessed as beta-lactamase production by cAMP response element assay; assay type: functional, cell-based
Sequence (Q8TDV5 whole entry): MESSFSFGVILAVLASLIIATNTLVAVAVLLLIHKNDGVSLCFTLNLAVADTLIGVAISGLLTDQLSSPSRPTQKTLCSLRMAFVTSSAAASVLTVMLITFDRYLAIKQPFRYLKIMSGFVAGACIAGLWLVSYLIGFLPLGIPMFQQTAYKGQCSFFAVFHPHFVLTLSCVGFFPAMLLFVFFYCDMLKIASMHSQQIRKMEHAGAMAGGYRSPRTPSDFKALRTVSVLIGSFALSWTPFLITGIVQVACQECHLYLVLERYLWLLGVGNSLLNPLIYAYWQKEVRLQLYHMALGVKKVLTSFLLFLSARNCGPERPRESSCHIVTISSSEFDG
What Intrinsic activity was measured for each of the following?
Give the quantity in %, number only.

GET /values?readout=Intrinsic activity&system=Glucose-dependent insulinotropic receptor (Homo sapiens) (UniProt Q8TDV5)&item= C[C@H](CNC(=O)Cc1c(F)ccc(F)c1F)C1CCN(C(=O)OC2(C)CC2)CC1 124

GET /values?readout=Intrinsic activity&system=Glucose-dependent insulinotropic receptor (Homo sapiens) (UniProt Q8TDV5)&item= CC(C)OC(=O)N1CCC(C(C)CNC(=O)Cc2c(F)ccc(F)c2F)CC1 (stereo unspecified) 88

GET /values?readout=Intrinsic activity&system=Glucose-dependent insulinotropic receptor (Homo sapiens) (UniProt Q8TDV5)&item= CC(C)OC(=O)N1CCC(CCNC(=O)Cc2c(F)ccc(F)c2F)CC1 68

GET /values?readout=Intrinsic activity&system=Glucose-dependent insulinotropic receptor (Homo sapiens) (UniProt Q8TDV5)&item= CC(CNC(=O)Cc1ccccc1)C1CCN(C(=O)OC(C)(C)C)CC1 (stereo unspecified) 100

GET /values?readout=Intrinsic activity&system=Glucose-dependent insulinotropic receptor (Homo sapiens) (UniProt Q8TDV5)&item= CC1(OC(=O)N2CCC(CCNC(=O)Cc3c(F)ccc(F)c3F)CC2)CC1 111

GET /values?readout=Intrinsic activity&system=Glucose-dependent insulinotropic receptor (Homo sapiens) (UniProt Q8TDV5)&item= CC1(OC(=O)N2CCC([C@@H](F)CNC(=O)Cc3c(F)ccc(F)c3F)CC2)CC1 100

GET /values?readout=Intrinsic activity&system=Glucose-dependent insulinotropic receptor (Homo sapiens) (UniProt Q8TDV5)&item= CC(CNC(=O)Cc1ccc(-n2cnnn2)cc1)C1CCN(C(=O)OC(C)(C)C)CC1 (stereo unspecified) 72

GET /values?readout=Intrinsic activity&system=Glucose-dependent insulinotropic receptor (Homo sapiens) (UniProt Q8TDV5)&item= C[C@@H](CNC(=O)Cc1c(F)ccc(F)c1F)C1CCN(C(=O)OC2(C)CC2)CC1 97

GET /values?readout=Intrinsic activity&system=Glucose-dependent insulinotropic receptor (Homo sapiens) (UniProt Q8TDV5)&item= CC(CNC(=O)Cc1cc(F)ccc1F)C1CCN(C(=O)OC(C)(C)C)CC1 (stereo unspecified) 104

GET /values?readout=Intrinsic activity&system=Glucose-dependent insulinotropic receptor (Homo sapiens) (UniProt Q8TDV5)&item= CC1(OC(=O)N2CCC([C@H](F)CNC(=O)Cc3c(F)ccc(F)c3F)CC2)CC1 107

GET /values?readout=Intrinsic activity&system=Glucose-dependent insulinotropic receptor (Homo sapiens) (UniProt Q8TDV5)&item= CC(CNC(=O)Cc1ccccc1F)C1CCN(C(=O)OC(C)(C)C)CC1 (stereo unspecified) 97

GET /values?readout=Intrinsic activity&system=Glucose-dependent insulinotropic receptor (Homo sapiens) (UniProt Q8TDV5)&item= CC(CNC(=O)Cc1cccc(F)c1)C1CCN(C(=O)OC(C)(C)C)CC1 (stereo unspecified) 102

GET /values?readout=Intrinsic activity&system=Glucose-dependent insulinotropic receptor (Homo sapiens) (UniProt Q8TDV5)&item= CC(CNC(=O)Cc1c(F)ccc(F)c1F)C1CCN(C(=O)OC(C)(C)C)CC1 (stereo unspecified) 87

GET /values?readout=Intrinsic activity&system=Glucose-dependent insulinotropic receptor (Homo sapiens) (UniProt Q8TDV5)&item= CC(CNC(=O)Cc1ccc(S(C)(=O)=O)cc1)C1CCN(C(=O)OC(C)(C)C)CC1 (stereo unspecified) 47

GET /values?readout=Intrinsic activity&system=Glucose-dependent insulinotropic receptor (Homo sapiens) (UniProt Q8TDV5)&item= CC(CNC(=O)Cc1c(F)cccc1F)C1CCN(C(=O)OC(C)(C)C)CC1 (stereo unspecified) 101

GET /values?readout=Intrinsic activity&system=Glucose-dependent insulinotropic receptor (Homo sapiens) (UniProt Q8TDV5)&item= CC(CNC(=O)Cc1cccc(F)c1F)C1CCN(C(=O)OC(C)(C)C)CC1 (stereo unspecified) 107
